Property: TGI; scope: individual compounds
System: ACHN renal
METHOD DESCRIPTION: NCI tumour cell line growth inhibition, 48 h

Sample records with TGI:
COMPOUND	TGI
Cc1cn2c(/C=C3\C(=O)N(C)c4ccc(O)cc43)c(C)nc2s1	> 100 µM
N#CC(=NCCO)C1=C(O)c2ccccc2C1=O	> 100 µM
NC1=NS(=O)(=O)Nc2nc(-c3ccc([N+](=O)[O-])cc3)[nH]c21	> 100 µM

Enquiry: Would you kindly share the measured TGI for CC(=O)c1sc(-c2nc(C)c(C(=O)/C=C\c3ccc(/C=C\C(=O)c4sc(-c5nc(C)c(C(C)=O)s5)nc4C)cc3)s2)nc1C ?
Return: > 100 µM

Enquiry: Would you kindly share the measured TGI for O=C(Cc1ccccc1)NN1C(=O)C(Cl)C1c1ccc(O)cc1 (stereo not drawn) ?
Return: > 100 µM

Enquiry: Would you kindly share the measured TGI for CCOC(=O)c1ccc(N2C(=S)N(C(=O)c3ccccc3)C(=Nc3ccccc3)C2=Nc2ccccc2)cc1 ?
Return: > 100 µM

Enquiry: Would you kindly share the measured TGI for COc1ccc2[nH]c3c4c(ccc3c2c1)C(=O)C=CC4=O ?
Return: 15 µM

Enquiry: Would you kindly share the measured TGI for C1C[OH+]CCNCC[OH+]CC[OH+]CCN1.[Cl-].[Pt+4] ?
Return: > 100 µM

Enquiry: Would you kindly share the measured TGI for COC(=O)[C@@H]1CCCN1CCN1CCC[C@H]1C(=O)OC ?
Return: > 100 µM

###

Property: TGI; scope: individual compounds
Test system: MDA-N
METHOD DESCRIPTION: NCI tumour cell line growth inhibition, 48 h

Sample records with TGI:
COMPOUND	TGI
CC(C)OC(=O)NNc1cc(Cl)ccc1Cl	> 100 µM
NC(=O)NNC(=O)c1nc[nH]c1[N+](=O)[O-]	> 100 µM
c1cc2nnnn2nc1N1CCCC1	> 100 µM
Cc1ccc(-c2cc(N)n(-c3nc4c(c(=O)n(C)c(=O)n4C)n3C)n2)cc1	> 100 µM
O=C(O)c1ccc(S(=O)(=O)c2ccccc2[N+](=O)[O-])cc1	> 10 µM

Enquiry: Param readout = TGI; param system = MDA-N; param query = Cc1cn(C2CC(n3cc(Cn4cc(Br)c(=O)[nH]c4=O)nn3)C(CO)O2)c(=O)[nH]c1=O (stereo unspecified) ; response: value
Return: > 100 µM

###

Property: TGI; scope: individual molecules
Tested on: M14 melanoma
METHOD DESCRIPTION: NCI tumour cell line growth inhibition, 48 h

Sample records with TGI:
MOLECULE	TGI
Cc1cc2c(cc1Cl)SC(=Nc1ccc(Cl)cc1)N(S(=O)(=O)c1ccccc1)S2(=O)=O	27.6 µM
COc1cc2c3c(n(CCCN(C)C)c(=O)c2cc1OC)-c1ccccc1C3=O	> 88.2 µM
O=C1OC2(OC2c2ccccc2)c2ccccc21 (centres undefined)	> 100 µM
COc1ccc2nc3ccccc3c(NCCCCCCN(CCCl)CCCl)c2c1	0.514 µM
NC1=NS(=O)(=O)Nc2nc(-c3ccc([N+](=O)[O-])o3)[nH]c21	28.4 µM

Enquiry: Would you kindly share the measured TGI for NCCN=C(Nc1ccccc1)Nc1ccccc1 ?
Return: > 100 µM

Enquiry: Would you kindly share the measured TGI for COc1cc2ncn(-c3cc(OCCc4ccccc4)c(C(N)=O)s3)c2cc1OC ?
Return: > 25 µM

Enquiry: Would you kindly share the measured TGI for COCCOc1cnc2ccn([C@H](C)c3nnc4c(F)cc(-c5cnn(C)c5)cn34)c(=O)c2c1 ?
Return: > 100 µM
